Target: T1, HLA-B*07:02 (human)
T1 construct: Peptide-receptive MHC class I monomer after UV cleavage of a UV-sensitive ligand
Assay: UV-ligand exchange, anti-b2m ELISA; peptide exchange yield grade
Listing: peptide exchange yield of selected binders

Looking up `APFKDVTEY` , I found its peptide exchange yield recorded as 50 to 75%

Looking up `FPYYLKIDY` , I found its peptide exchange yield recorded as 50 to 75%

Looking up `LPFFTDKTLSF` , I found its peptide exchange yield recorded as ≥ 75%

Looking up `VPRNQDESV` , I found its peptide exchange yield recorded as ≥ 75%

Consider now this further binder.
Looking up `HPDLTSMTF` , I found its peptide exchange yield recorded as ≥ 75%
